assayed_system: F508delCFTR (Homo sapiens, UniProt P13569, DEL508-508)
Construct: expressed in transfected cells; host or cells: CFBE41o- human lung-derived epithelial cells (CFBE4lo-F508delCFTR-HRP), doxycycline-inducible
Sequence (P13569 with tags, fused parts or gaps DEL508-508): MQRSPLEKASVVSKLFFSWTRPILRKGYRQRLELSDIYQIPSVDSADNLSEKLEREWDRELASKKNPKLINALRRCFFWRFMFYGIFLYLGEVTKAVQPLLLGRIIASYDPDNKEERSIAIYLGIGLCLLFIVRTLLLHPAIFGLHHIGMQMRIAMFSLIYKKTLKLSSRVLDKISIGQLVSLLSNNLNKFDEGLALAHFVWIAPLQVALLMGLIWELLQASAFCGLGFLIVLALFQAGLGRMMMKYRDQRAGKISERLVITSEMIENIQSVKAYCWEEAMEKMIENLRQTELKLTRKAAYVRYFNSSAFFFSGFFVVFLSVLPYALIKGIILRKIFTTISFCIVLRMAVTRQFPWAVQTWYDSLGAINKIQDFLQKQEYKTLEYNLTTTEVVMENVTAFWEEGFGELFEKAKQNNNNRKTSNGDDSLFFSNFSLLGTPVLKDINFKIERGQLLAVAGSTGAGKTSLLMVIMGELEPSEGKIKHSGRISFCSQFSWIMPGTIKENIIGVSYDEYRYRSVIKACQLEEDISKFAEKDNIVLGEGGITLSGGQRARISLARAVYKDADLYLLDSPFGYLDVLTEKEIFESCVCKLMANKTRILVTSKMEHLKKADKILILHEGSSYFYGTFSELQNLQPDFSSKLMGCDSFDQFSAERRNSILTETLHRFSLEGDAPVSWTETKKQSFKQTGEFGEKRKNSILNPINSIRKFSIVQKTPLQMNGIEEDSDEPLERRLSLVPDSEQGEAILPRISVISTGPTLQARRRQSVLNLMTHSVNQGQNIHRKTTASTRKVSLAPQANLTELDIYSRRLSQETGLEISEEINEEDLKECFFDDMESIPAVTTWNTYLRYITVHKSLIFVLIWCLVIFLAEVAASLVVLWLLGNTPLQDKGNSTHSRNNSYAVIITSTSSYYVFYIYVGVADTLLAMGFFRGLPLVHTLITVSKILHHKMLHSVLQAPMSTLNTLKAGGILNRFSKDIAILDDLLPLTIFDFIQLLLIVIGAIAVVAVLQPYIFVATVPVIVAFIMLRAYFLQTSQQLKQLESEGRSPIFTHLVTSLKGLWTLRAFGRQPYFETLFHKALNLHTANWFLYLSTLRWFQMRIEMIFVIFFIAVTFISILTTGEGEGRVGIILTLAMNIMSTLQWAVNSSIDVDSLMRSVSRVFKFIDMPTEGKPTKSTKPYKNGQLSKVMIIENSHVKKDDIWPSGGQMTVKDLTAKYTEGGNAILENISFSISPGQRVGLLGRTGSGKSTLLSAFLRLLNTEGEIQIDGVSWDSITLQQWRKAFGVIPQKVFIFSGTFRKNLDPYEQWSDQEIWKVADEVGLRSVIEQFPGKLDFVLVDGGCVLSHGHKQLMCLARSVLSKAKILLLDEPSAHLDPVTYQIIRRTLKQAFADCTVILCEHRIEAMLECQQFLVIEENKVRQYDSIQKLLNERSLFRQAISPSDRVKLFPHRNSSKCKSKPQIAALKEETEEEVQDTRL
assay_info: Cell Surface Expression-Horse Radish Peroxidase (CSE-HRP) Assay;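 note: percent of the 2 µM on-plate positive control corrector response above DMSO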
Type: cell-based
condition_info: without co-corrector; maximum at any tested concentration, normalized to on-plate positive control; read-out: Maximum % activity (without co-corrector)
Below, each entry is listed with its recorded Emax.

Some molecules with recorded Emax:
molecule	assayed_system	result
COc1ccc(C23CC(C2)C3)cc1CN[C@H]1[C@H](C(C)(C)C)[C@@H](C(=O)O)N(C(=O)[C@@H]2CCCC(F)(F)C2)[C@H]1c1ccccc1	F508delCFTR (Homo sapiens, UniProt P13569, DEL508-508)	> 200%
COc1cc(C(F)(F)F)ccc1CN[C@H]1[C@H](C(C)(C)C)[C@@H](C(=O)O)N(C(=O)C2CCCCC2)[C@H]1c1ccccc1OC(F)F	F508delCFTR (Homo sapiens, UniProt P13569, DEL508-508)	< 100%
COc1ncc(C(C)(C)C)cc1CN[C@H]1[C@H](C(C)(C)C)[C@@H](C(=O)O)N(C(=O)C2CCCCC2)[C@H]1c1cccnc1OC	F508delCFTR (Homo sapiens, UniProt P13569, DEL508-508)	> 200%
COc1cc2c(cc1CN[C@H]1[C@H](C(C)(C)C)[C@@H](C(=O)O)N(C(=O)OC(C)C)[C@H]1c1ccccc1C)CCC2	F508delCFTR (Homo sapiens, UniProt P13569, DEL508-508)	> 200%
CC(C)(C)[C@H]1[C@H](Nc2cc(C(F)(F)F)cc(C3CCC3)n2)[C@H](c2ccccc2)N(C(=O)C2CCCCC2)[C@@H]1C(=O)O	F508delCFTR (Homo sapiens, UniProt P13569, DEL508-508)	< 100%

Incoming: What does the data say about its Emax? Entry: `CCC(CC)Cc1cnc(OC)c(CN[C@H]2[C@H](C(C)(C)C)[C@@H](C(=O)O)N(C(=O)C3CCCCC3)[C@H]2c2ccccc2)c1`
Outgoing: > 200%

Incoming: What does the data say about its Emax? Entry: COc1nc(C(C)(C)C)ccc1CN[C@H]1[C@H](C(C)(C)C)[C@@H](C(=O)O)N(C(=O)C2CCCC(F)(F)C2)[C@H]1c1ccccc1 (relative stereo) [Example 53]
Outgoing: > 200%

Incoming: What does the data say about its Emax? Entry: `COc1ccc(C(C)(C)C)cc1CN[C@H]1[C@H](C23CC(C2)C3)[C@@H](C(=O)O)N(C(=O)OC(C)C)[C@H]1c1ccccc1`
Outgoing: > 200%
